biological target: human mGluR2 (Homo sapiens); construct: fused on or other part: If FLIPR: the intracellular domain of the human calcium receptor (CASR, P41180) in place of mGluR2's own, and the promiscuous chimeric G protein Gaqi5 fused on; If GTPgammaS: nothing; experiment: mGluR2 potentiator assays described herein (FLIPR calcium mobilization in HEK 293 cells expressing chimeric mGluR2/CaR, or [35S]-GTPγS binding with CHO membranes); conditions: active in the assays described herein; which assay (FLIPR or GTPγS) is not stated
Sequence (Q14416 19-819 limits assumed): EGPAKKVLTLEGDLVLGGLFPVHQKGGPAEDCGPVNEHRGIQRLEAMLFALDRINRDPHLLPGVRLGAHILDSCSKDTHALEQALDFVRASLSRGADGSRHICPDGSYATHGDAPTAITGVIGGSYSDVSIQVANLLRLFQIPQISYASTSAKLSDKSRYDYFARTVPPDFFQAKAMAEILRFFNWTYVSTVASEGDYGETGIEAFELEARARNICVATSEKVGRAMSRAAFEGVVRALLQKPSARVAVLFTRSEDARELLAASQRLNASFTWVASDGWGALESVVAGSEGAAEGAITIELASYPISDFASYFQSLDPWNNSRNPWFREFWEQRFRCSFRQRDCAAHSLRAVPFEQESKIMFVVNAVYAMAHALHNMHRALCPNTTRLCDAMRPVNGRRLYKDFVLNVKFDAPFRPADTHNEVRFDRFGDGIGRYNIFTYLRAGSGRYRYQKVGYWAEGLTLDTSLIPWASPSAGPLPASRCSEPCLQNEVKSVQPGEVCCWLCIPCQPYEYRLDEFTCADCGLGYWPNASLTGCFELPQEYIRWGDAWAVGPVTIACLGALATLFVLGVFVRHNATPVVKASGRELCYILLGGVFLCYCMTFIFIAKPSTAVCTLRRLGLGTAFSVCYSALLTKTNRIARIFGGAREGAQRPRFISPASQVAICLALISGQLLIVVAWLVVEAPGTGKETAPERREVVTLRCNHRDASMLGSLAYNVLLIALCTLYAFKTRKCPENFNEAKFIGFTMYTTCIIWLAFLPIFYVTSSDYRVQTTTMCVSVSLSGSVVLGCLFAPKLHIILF
pEC50: −log10 of the molar value.
Classification field: yes = pEC50 at or over 6; no = pEC50 under 6.

Use the examples below as a reference point.
* CC1CCc2cc(F)cc3nc(CN4CC=C(c5ccc(OC(F)(F)F)cc5)CC4)n1c23 (centres unmarked) [Example 26.65] | yes
* CC1CCc2cc(F)cc3nc(CN4CCC(Oc5ccccc5Cl)CC4)n1c23 (centres unmarked) [Example 26.55] | yes

IN: Say whether CC1CCc2cc(F)cc3nc(CN4CCN(c5ccc(F)cc5)CC4)n1c23 (centres unmarked) [Example 26.56] shows pEC50 of 6 or more.
OUT: no

IN: Say whether Fc1ccc(C2CCN(Cc3nc4cccc5c4n3CCO5)CC2)cc1 [Example 26.69] shows pEC50 of 6 or more.
OUT: yes
